- Procedure summary: Plasma levels of MP-10 after subcutaneous administration
- Measurement parameters: rhesus monkey, sc
Test readout: Tmax

Using the record for Cn1cc(-c2ccncc2)c(-c2ccc(OCc3ccc4ccccc4n3)cc2)n1 , report its Tmax.
1 to 2 h
